Where do these numbers come from? They come from the Human Domainome abundance scans (Beltran et al. 2025).

Overview of reported abundance fitness across a group of variants:
B1: Homeobox protein cut-like 2, residues 895 to 963; numbered along this chain, O14529 (parent)
chain: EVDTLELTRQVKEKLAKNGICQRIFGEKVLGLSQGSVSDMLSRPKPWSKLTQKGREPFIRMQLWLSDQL

Variants of: B1
Test: abundance fitness (aPCA) (normalised: wild type 0, dead -1); higher = more abundant; growth selection in yeast, the domain comes from the species named
Conditions: Homo sapiens
Enter a number only.

In [3]: df
Out[3]:
   mutant_designation  measured_quantity  data_value
0                Q10L  abundance fitness      -0.018
1                S38D  abundance fitness       0.007
2                L32V  abundance fitness       0.132

Return abundance fitness for the following variant: "P44S"
-0.171

Return abundance fitness for the following variant: "G19F"
-0.226

Return abundance fitness for the following variant: "K14R"
-0.062

Return abundance fitness for the following variant: "K53S"
0.04

Return abundance fitness for the following variant: "T4L"
-0.215

Return abundance fitness for the following variant: "G31T"
-0.274

Return abundance fitness for the following variant: "I24S"
-0.084

Return abundance fitness for the following variant: "I20D"
-0.415

Return abundance fitness for the following variant: "L41A"
-0.223
